Record form. Attribute: IC50. Fill in for each entry.
Test system: NCI-H460
Experiment: Cytostatic activity against human NCI-H460 cells after 72 hrs by MTT assay
Format: functional, cell-based
Conditions: NCI-H460, 72 h
One number for each entry, in µM.

Sample records with IC50:
[
  {
    "Molecule": "CC(C)Cc1ccc(C(C)C(=O)NNC(=O)NNC(=O)NOCc2ccccc2)cc1 (centres undefined)",
    "Unit spec": "µM",
    "IC50": 71
  },
  {
    "Molecule": "CC(C)Cc1ccc(C(C)C(=O)NNC(=O)NC(c2ccccc2)c2ccccc2)cc1 (centres undefined)",
    "Unit spec": "µM",
    "IC50": 16
  },
  {
    "Molecule": "CC(C)Cc1ccc(C(C)C(=O)NNC(=O)NC2CCCCC2)cc1 (centres undefined)",
    "Unit spec": "µM",
    "IC50": 35
  }
]

Please turn your attention to the following entry.
The recorded IC50 for entry CC(C(=O)NNC(=O)NC1CCCCC1)c1cccc(Oc2ccccc2)c1 (centres undefined) equals 24

Where these numbers come from: ChEMBL document CHEMBL2010803
